Subject of test: Sodium- and chloride-dependent betaine transporter (Homo sapiens)
Sequence (P48065 whole entry): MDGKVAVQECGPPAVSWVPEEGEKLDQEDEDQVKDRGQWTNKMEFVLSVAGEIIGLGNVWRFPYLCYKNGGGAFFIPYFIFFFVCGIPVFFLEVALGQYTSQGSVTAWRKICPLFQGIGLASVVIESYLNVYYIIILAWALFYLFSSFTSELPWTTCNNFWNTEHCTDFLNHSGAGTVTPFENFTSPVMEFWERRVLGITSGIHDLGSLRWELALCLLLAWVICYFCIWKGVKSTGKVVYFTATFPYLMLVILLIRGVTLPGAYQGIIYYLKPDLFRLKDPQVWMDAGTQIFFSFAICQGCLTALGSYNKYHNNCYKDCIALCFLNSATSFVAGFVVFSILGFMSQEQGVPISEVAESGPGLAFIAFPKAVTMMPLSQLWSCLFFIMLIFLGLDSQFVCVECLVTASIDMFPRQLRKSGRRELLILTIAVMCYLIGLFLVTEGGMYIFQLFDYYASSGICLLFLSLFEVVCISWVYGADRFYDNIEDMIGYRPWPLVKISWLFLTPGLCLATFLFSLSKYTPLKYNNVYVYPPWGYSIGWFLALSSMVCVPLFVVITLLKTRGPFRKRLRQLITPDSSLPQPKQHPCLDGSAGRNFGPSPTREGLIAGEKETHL
Procedure text: Inhibition of human BGT1 expressed in tsA201 cells assessed as inhibition of [3H]GABA uptake by liquid scintillation method
Quantity: IC50 (µM)
Unit µM implied. Number only.

Prompt line: What does the record list as IC50 for NCC(N)C(=O)O (stereo unspecified) ?
Response line: 631

====

IC50 values for the molecules below.
Subject of test: Sodium- and chloride-dependent GABA transporter 1 (Mus musculus, UniProt P31648)
Procedure text: Inhibition of mouse GTA 1 receptor
Unit µM implied. Number only.

* Cc1ccsc1C(=CCCN(C)[C@@H]1CCc2onc(O)c2C1)c1sccc1C | 7.08
* COc1ccc(C(OCCN2CCC[C@@H](C(=O)O)C2)(c2ccc(OC)cc2)c2ccc(OC)cc2C)cc1 | 64.6
* NCCC(=O)O | 2950

Turning now to a further record.
Prompt line: What does the record list as IC50 for `Cc1ccsc1C(=CCCN(C)[C@H]1CCc2onc(O)c2C1)c1sccc1C` ?
Response line: 7.08
